measured-target: T1, wild type human CD47 (Acro Biosystems, cat. no. CD7-H5227) (human, UniProt Q08722 19-139)
T1 construct: Bought protein used as SPR analyte; also called Human CD47 wt; wild-type CD47
T1 sequence (Q08722 19-139 limits assumed): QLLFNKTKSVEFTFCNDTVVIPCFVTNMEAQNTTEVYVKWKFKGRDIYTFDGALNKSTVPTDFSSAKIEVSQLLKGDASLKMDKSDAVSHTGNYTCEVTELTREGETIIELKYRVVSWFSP
test-description: SPR, IgG captured, CD47 in flow; exp 3;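 further: biacore T200 SPR with antibodies taken from supernatants of transfected HEK293 cells, C33G mutein avoiding IgV homodimers for monovalent affinity, Kd derived from association and dissociation rate constants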
endpoint-label: koff (s⁻¹)
Give bare numbers, in s⁻¹.

108VH5.M16 / 108VL1.M5 (antibody, human IgG4 S228P, kappa, V domains shown, Full-length IgG4 (S228P), kappa; also called VH5.M16 VL1.M5) VH: EVQLVQSGAEVKKPGASVKVSCKASGYTFTHHWMHWVRQAPGQGLEWMGMIDASDGETRYAQKFQGRVTMTRDTSTSTVYMELSSLRSEDTAVYYCARLGRYYFDYWGQGTLVTVSS VL: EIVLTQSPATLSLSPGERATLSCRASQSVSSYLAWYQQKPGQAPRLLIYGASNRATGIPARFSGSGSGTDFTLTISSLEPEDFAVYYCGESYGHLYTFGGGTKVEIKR = 0.0019

Give koff for each of the items listed below.
1. chimeric antibody 108C10A6 (antibody, V domains shown, Chimeric antibody with mouse variable domains; captured through human Fc; also called VH / VL) VH: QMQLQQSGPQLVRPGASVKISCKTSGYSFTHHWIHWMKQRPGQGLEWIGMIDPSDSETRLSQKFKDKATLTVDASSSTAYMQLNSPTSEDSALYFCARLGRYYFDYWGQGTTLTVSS VL: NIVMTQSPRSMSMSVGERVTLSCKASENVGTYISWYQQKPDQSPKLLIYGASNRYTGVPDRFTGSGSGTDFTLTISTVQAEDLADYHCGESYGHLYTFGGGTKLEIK
2. 108VH5.M17 / 108VL1.M5 (antibody, human IgG4 S228P, kappa, V domains shown, Full-length IgG4 (S228P), kappa; also called VH5.M17 VL1.M5) VH: EVQLVQSGAEVKKPGASVKVSCKASGYTFTHHWMHWVRQAPGQGLEWMGMIDASEGETRYAQKFQGRVTMTRDTSTSTVYMELSSLRSEDTAVYYCARLGRYYFDYWGQGTLVTVSS VL: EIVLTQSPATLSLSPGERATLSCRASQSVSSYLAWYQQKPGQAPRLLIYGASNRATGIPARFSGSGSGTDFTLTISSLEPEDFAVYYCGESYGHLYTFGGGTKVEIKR
3. 108VH5.M18 / 108VL1.M5 (antibody, human IgG4 S228P, kappa, V domains shown, Full-length IgG4 (S228P), kappa; also called VH5.M18 VL1.M5) VH: EVQLVQSGAEVKKPGASVKVSCKASGYTFTHHWMHWVRQAPGQGLEWMGMIDASESETRYAQKFQGRVTMTRDTSTSTVYMELSSLRSEDTAVYYCARLGRYYFDYWGQGTLVTVSS VL: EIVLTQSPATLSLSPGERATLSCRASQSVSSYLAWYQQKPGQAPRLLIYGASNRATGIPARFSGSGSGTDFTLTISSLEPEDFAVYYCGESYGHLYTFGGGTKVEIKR

Response:
[0.00032, 0.0084, 0.002]
